- System: MDA-MB-453
- experiment: normalised response (% of control), CellTiter-Glo; higher = more viable cells (100 = DMSO, 0 = benzethonium chloride kill control)
- reportedConditions: incubation time: 72 h
normalised response values, listed per item
Answer in %, number only, no unit symbol.

// known answers, use as guide
O=C(NC[C@H](O)CO)c1ccncc1Nc1ccc(I)cc1F [Pimasertib] (10 nM)
99.7
COc1ccc(-c2cc3c(C)nc(N)nc3n([C@H]3CC[C@H](OCCO)CC3)c2=O)cn1 (1000 nM)
12.9

Data request: Which normalised response value is on record for Cc1c(CN2CCN(C(=O)[C@H](C)O)CC2)sc2c(N3CCOCC3)nc(-c3cnc(N)nc3)nc12 [GDC-0980] (1000 nM) ?
Data returned: 20.4

----------
Listed next: entries and their corresponding normalised response.
- Test system: HDQ-P1
- experiment: normalised response (% of control), CellTiter-Glo; higher = more viable cells (100 = DMSO, 0 = benzethonium chloride kill control)
- reportedConditions: incubation time: 72 h
Please state the figure in %; there is no need to write the unit.

CC(C)N(CCCNC(=O)Nc1ccc(C(C)(C)C)cc1)C[C@H]1O[C@@H](n2cc(Br)c3c(N)ncnc32)[C@H](O)[C@@H]1O [SGC0946] (1 nM)
94.5

Moving on to the next molecule.
Data request: GET /values?readout=normalised response&system=HDQ-P1&item= C[C@]12C=CC(=O)C=C1CC[C@@H]1[C@@H]2[C@@H](O)C[C@@]2(C)[C@H]1CC[C@]2(O)C(=O)CO [Prednisolone] (1000 nM)
Data returned: 85.8

----------
- Test system: BT-474
- experiment: normalised response (% of control), CellTiter-Glo; higher = more viable cells (100 = DMSO, 0 = benzethonium chloride kill control)
- reportedConditions: incubation time: 72 h
normalised response: recorded values
A number alone suffices; assume %.

# annotated cases, reported normalised response shown
Cc1ccc(Nc2nccc(N(C)c3ccc4c(C)n(C)nc4c3)n2)cc1S(N)(=O)=O [Pazopanib] (1000 nM)
93.9
CS(=O)(=O)N1CCN(Cc2cc3nc(-c4cccc5[nH]ncc45)nc(N4CCOCC4)c3s2)CC1 [Pictilisib] (10 nM)
98.3
C[C@]12O[C@H](C[C@]1(O)CO)n1c3ccccc3c3c4c(c5c6ccccc6n2c5c31)CNC4=O [Lestaurtinib] (1 nM)
104
CCN(CC)CCNC(=O)c1c(C)[nH]c(/C=C2\C(=O)Nc3ccc(F)cc32)c1C [Sunitinib] (100 nM)
107
Cn1cc(CNCC2CCN(c3ncc(C(=O)NO)cn3)CC2)c2ccccc21 [Quisinostat] (1 nM)
107

Alright, here's another compound for you.
Data request: What value of normalised response has been reported for the following compound? CO[C@@H](C(=O)N1Cc2[nH]nc(NC(=O)c3ccc(N4CCN(C)CC4)cc3)c2C1)c1ccccc1 [Danusertib] (1000 nM)
Data returned: 75.6

----------
- Test system: HDQ-P1
- experiment: normalised response (% of control), CellTiter-Glo; higher = more viable cells (100 = DMSO, 0 = benzethonium chloride kill control)
- reportedConditions: incubation time: 72 h
endpointLabel: normalised response (%)
Give a bare numeral; the unit % is implied.

O=C(Nc1c[nH]nc1-c1nc2ccc(CN3CCOCC3)cc2[nH]1)NC1CC1 [AT9283] (100 nM)
96.9
Cn1cc(CNCC2CCN(c3ncc(C(=O)NO)cn3)CC2)c2ccccc21 [Quisinostat] (1 nM)
94.3
Nc1cccc2c1CN(C1CCC(=O)NC1=O)C2=O (stereo not given) [Lenalidomide] (1000 nM)
101

Data request: # input molecule: O=C(CCBr)N1CCN(C(=O)CCBr)CC1 [Pipobroman] (10 nM) ; wanted: its normalised response
Data returned: 105

Data request: And for C[C@]12O[C@H](C[C@]1(O)CO)n1c3ccccc3c3c4c(c5c6ccccc6n2c5c31)CNC4=O [Lestaurtinib] (0.1 nM) ?
Data returned: 100
